Property: pKd; scope: individual binders
Biological target: FXI
Assay: Kd (SPR)
Scale: negative log10 of molar concentration, which is what pKd denotes.

Binder: unnamed (protein) chain 1: EVQLLESGGGLVQPGGSLRLSCAASGFTFSSYAMDWVRQAPGKGLEWVSGISSDGGSTVYADSVKGRFTISRDNSKNTLYLQMNSLRAEDTAVYYCARGGPSYYYAFDVWGQGTTVTVSS chain 2: DIQMTQSPSSLSASVGDRVTITCQASQDISNYLNWYQQKPGKAPKLLIYDASNLETGVPSRFSGSGSGTDFTFTISSLQPEDIATYYCQQADSFPVTFGGGTKVEIK
Experimental endpoint: pKd
Endpoint value: 6.30

State, in one line, measured pKd of unnamed (protein) chain 1: EVQLLESGGGLVQPGGSLRLSCAASGFTFSQYGMDWVRQAPGKGLEWVSGIGPSGGSTVYADSVKGRFTISRDNSKNTLYLQMNSLRAEDTAVYYCTRDGPWYYYAFDVWGQGTTVTVSS chain 2: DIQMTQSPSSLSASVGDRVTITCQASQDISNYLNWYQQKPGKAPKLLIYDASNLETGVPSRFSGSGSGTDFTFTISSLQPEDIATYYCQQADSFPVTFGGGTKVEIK 7.10

State, in one line, measured pKd of unnamed (protein) chain 1: EVQLLESGGGLVQPGGSLRLSCAASGFTFSQYGMDWVRQAPGKGLEWVSGIGPSGGSTVYADSVKGRFTISRDNSKNTLYLQMNSLRAEDTAVYYCARGGPAYYYAFDIWGQGTTVTVSS chain 2: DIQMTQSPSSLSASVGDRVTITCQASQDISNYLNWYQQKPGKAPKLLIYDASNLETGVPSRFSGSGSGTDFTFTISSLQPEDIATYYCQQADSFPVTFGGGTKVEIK 6.37

State, in one line, measured pKd of unnamed (protein) chain 1: EVQLLESGGGLVQPGGSLRLSCAASGFTFSSYGMDWVRQAPGKGLEWVSGISSDGGSTVYADSVKGRFTISRDNSKNTLYLQMNSLRAEDTAVYYCTRDGPSYYYAFDVWGQGTTVTVSS chain 2: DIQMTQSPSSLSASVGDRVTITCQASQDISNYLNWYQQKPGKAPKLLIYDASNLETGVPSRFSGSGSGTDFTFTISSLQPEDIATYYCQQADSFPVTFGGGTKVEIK 7.09

State, in one line, measured pKd of unnamed (protein) chain 1: EVQLLESGGGLVQPGGSLRLSCAASGFTFSSYAMDWVRQAPGKGLEWVSGISSDGGSTVYADSVKGRFTISRDNSKNTLYLQMNSLRAEDTAVYYCARGGPAYYYAFDVWGQGTTVTVSS chain 2: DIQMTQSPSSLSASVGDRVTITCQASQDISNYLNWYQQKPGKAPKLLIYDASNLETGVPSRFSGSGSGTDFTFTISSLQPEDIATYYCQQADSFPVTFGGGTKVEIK 6.20

State, in one line, measured pKd of unnamed (protein) chain 1: EVQLLESGGGLVQPGGSLRLSCAASGFTFSQYGMDWVRQAPGKGLEWVSGIGPSGGSTVYADSVKGRFTISRDNSKNTLYLQMNSLRAEDTAVYYCTRDGGAYYYAFDVWGQGTTVTVSS chain 2: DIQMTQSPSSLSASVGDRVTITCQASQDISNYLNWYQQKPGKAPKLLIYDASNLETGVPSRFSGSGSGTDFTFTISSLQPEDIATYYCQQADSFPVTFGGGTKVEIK 6.87
